This collection of values is drawn from patent US12421229B2.

- target-under-test: CYP3A4 (Homo sapiens, UniProt P08684)
- Construct: tissue BD-Gentest 452117; host or cells: human liver microsomes
- Sequence (P08684 whole entry): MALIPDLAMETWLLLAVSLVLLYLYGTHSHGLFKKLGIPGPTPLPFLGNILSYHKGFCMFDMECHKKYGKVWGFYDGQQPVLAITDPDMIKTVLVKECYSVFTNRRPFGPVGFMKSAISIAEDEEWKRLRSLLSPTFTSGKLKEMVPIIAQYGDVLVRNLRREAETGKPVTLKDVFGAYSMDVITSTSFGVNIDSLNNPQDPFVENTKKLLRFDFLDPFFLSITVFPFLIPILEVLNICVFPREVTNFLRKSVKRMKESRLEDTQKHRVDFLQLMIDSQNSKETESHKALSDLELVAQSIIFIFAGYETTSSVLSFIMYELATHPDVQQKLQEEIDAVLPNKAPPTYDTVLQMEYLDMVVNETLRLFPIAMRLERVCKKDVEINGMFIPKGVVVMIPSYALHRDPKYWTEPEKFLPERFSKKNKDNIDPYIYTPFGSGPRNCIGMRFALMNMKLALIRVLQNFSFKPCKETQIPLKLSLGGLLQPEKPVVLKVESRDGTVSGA
- assay-procedure: CYP inhibition assay in human liver microsome, CYP3A4
- Format: in vitro ADME
- reported-conditions: percentage inhibition, substrate Midazolam 5 μM
readout: CYP (%) 3A4

molecule=CO[C@H]1CN(c2ccc([C@@H]3CCN4[C@@H](C3)CN(c3ccc(C#N)c5ncccc35)C[C@H]4C)cn2)C[C@@H]1N experimental_value=11

[I] C[C@@H]1CN(c2ccc(C#N)c3ncccc23)C[C@@H]2C[C@@H](Oc3ccc(N4CCNCC4)cn3)CCN21
[II] CO[C@@H]1CN(c2ccc([C@@H]3CCN4[C@@H](C3)CN(c3ccc(C#N)c5ncccc35)C[C@H]4C)cn2)C[C@H]1N
Record comparison, field CYP (%) 3A4: mark the lower of I and II . In your reply, give the label of the chosen option.
I
